assay-summary: Dissociation constant, pKa of the compound
Type: physicochemical
measure-name: pKa

smiles_string=CC(=O)N[C@@H](Cc1cc(F)cc(F)c1)[C@H](O)[C@H]1C[C@@H](OCC2CCCCC2)CN1.Cl measure_name=pKa value_reported=8.2
smiles_string=CC(=O)N[C@@H](Cc1cc(F)cc(F)c1)[C@H](O)[C@H]1CC[C@@H](OCC2CCCCC2)CN1.Cl measure_name=pKa value_reported=8.6
smiles_string=CC(=O)N[C@@H](Cc1cc(F)cc(F)c1)[C@H](O)[C@H]1CO[C@@H](OCC2CCCCC2)CN1.O=C(O)C(F)(F)F measure_name=pKa value_reported=6.7
smiles_string=CC(=O)N[C@@H](Cc1cc(F)cc(F)c1)[C@H](O)[C@H]1CO[C@@H](OCC2CCCCC2)[C@H](C)N1 measure_name=pKa value_reported=6.7
smiles_string=CCCN(CCC)C(=O)c1cccc(C(=O)N[C@@H](Cc2ccccc2)[C@H](O)CNC2CC2)c1 measure_name=pKa value_reported=8.4
smiles_string=CCCN(CCC)C(=O)c1cccc(C(=O)N[C@@H](Cc2ccccc2)[C@H](O)[C@H]2CCCN2)c1 measure_name=pKa value_reported=9.6
smiles_string=CC[C@H](C)Nc1cc(C(=O)N[C@@H](Cc2ccccc2)[C@H](O)[C@H]2CCCN2)cc(S(C)(=O)=O)n1.Cl measure_name=pKa value_reported=9.4
smiles_string=CC(=O)N[C@@H](Cc1cc(F)cc(F)c1)[C@H](O)[C@H]1CO[C@@H](OCC(C)(C)C)[C@H](C)N1.Cl measure_name=pKa value_reported=6.9
